Recorded Enzyme Activity Endpoint Assay: scIgG, one value per entry.
- ASSAY TARGET: pooled human IgG (human IgG1,2,3 and 4)
Hi! Could you send only the number? It should be in ng/µL, unit omitted.

PROTEIN	TEST READOUT	NUMBER
PRT-435 (protein) MSQTEDSESLQRLRDIEDFQAEKEKQNVVYTKWLDGVDVKDHDFRKIVDGNIAYYATPLLNGRGFYDINKDFNRDSDKCAAAVAANMFHYWLDRNRDNVDRFLRQNPEKHGIIELPDGQLKLSDFLNTYESDDGYRDKSKLFDFISNNFNGPVWTDKLLDNYINGYAYNYKYGRTIEDPTKNTSKINFFKEVFNEKILTNNHSIRNQNEFSVLLSEALYTGKAIGLSYGPAGLRHSLGHIISVWGADLDADGNVVAIYVTDSDDKKLTIGDERVGLKRYKISTDDEGRLRLTAYEETHNTGGQIRGLWTLDTGKQAWADYFDKTEQTGTDQAEQ	Enzyme Activity Endpoint Assay: scIgG	380

// next item, Enzyme Activity Endpoint Assay: scIgG requested
For the protein shown here, PRT-179 (protein) MANQEIRYSEVTPYHVTSVWTKGVTPPANFTQGEDVFHAPYVANQGWYDITKTFNGKDDLLCGAATAGNMLHWWFDQNKDQIKRYLEEHPEKQKINFNGEQMFDVKEAIDTKNHQLDSKLFEYFKEKAFPYLSARQLGVFPDHVIDMFINGYRLSLTNHGPTPVKEGSKDPRGGIFDAVFTRGDQSKLLTSRHDFKEKNLKEISDLIKKELTEGKALGLSHTYANVRINHVINLWGADFDSNGNLKAIYVTDSDSNASIGMKKYFVGVNSAGKVAISAKEIKEDNIGAQVLGLFTLSTGQDSWNQTN , give the reported Enzyme Activity Endpoint Assay: scIgG. 0
